// provenance: ChEMBL document CHEMBL3112408

# Tested on: V79
# assay method text: Cytotoxicity against chinese hamster V79 cells assessed as cell viability after 72 hrs by MTT assay
# Assay type: cell-based
# experimental setup: Cricetulus griseus, V79, 72 h
Recorded IC50 by entry

Below: 2 compounds and their reported IC50.
>>> recorded_result("O=C1C=C(NCc2cn(CCN3C(=O)c4ccccc4C3=O)nn2)C(=O)c2ccccc21")
"> 11 µM"
>>> recorded_result("O=C1C(Br)=C(NCc2cn(CCCN3C(=O)c4ccccc4C3=O)nn2)C(=O)c2ccccc21")
"> 9 µM"

Now for another entry.
Reported IC50 for `O=C1C(Cl)=C(NCc2cn(CN3C(=O)c4ccccc4C3=O)nn2)C(=O)c2ccccc21` was > 11 µM
